target: human glucagon-like peptide 1 receptor (human, UniProt P43220 24-463); assay: cell-based or functional assay
Where no end group is shown, it is not given here. [ ]: non-standard residue; d: D form. Aib = CC(C)(N)C(=O)O
Answer each item with its documented hGLP-1R CRE Luc EC50 (pM).
Dear colleague, please return just the value in pM, with no unit written.

Incoming: Return reported hGLP-1R CRE Luc EC50 (pM); argument: Y[Aib]QGTFTSDYSIYLEKQAA[Aib]EFVQWLLEGGPSSGAPPPS-NH2 (not fully specified (residue 16); printed as Y-Aib-QGTFTSDYSIYLE-K[2-[2-[2-[[2-[2-[2-[[(4S)-4-carboxy-4-[[4-[(19-carboxynonadecanoylamino)methyl]cyclohexanecarbonyl]amino]butanoyl]amino]ethoxy]ethoxy]acetyl]amino]ethoxy]ethoxy]acetyl]-QAA-Aib-EFVQWLLEGGPSSGAPPPS-NH2) [Compound No. 14]
Outgoing: 4.3

Incoming: For the binder H[Aib]HGTFTSDYSIYLEKQAAEEFVQWLLEGGPSSGAPPPS-NH2 (not fully specified (residue 16); printed as H-Aib-HGTFTSDYSIYLE-K[(2S)-2-amino-6-[[(2S)-2-amino-6-[[(4S)-4-carboxy-4-(19-carboxynonadecanoylamino)butanoyl]amino]hexanoyl]amino]hexanoyl]-QAAEEFVQWLLEGGPSSGAPPPS-NH2) [Compound No. 27] , what hGLP-1R CRE Luc EC50 (pM) is on record?
Outgoing: 0.8

Incoming: Can you look up the measured hGLP-1R CRE Luc EC50 (pM) of H[Aib]HGTFTSDYSILLEKQAA[Aib]EFVQWLLEGGPSSGAPPPS-NH2 (not fully specified (residue 16); printed as H-Aib-HGTFTSDYSILLE-K[(2S)-2-amino-6-[[(2S)-2-amino-6-[[(4S)-4-carboxy-4-(19-carboxynonadecanoylamino)butanoyl]amino]hexanoyl]amino]hexanoyl]-QAA-Aib-EFVQWLLEGGPSSGAPPPS-NH2) [Compound No. 43] for me?
Outgoing: 3

Incoming: Would you kindly share the measured hGLP-1R CRE Luc EC50 (pM) for H[Aib]HGTFTSDYSYYLEKQAA[Aib]EFVQWLLEGGPSSGAPPPS-NH2 (not fully specified (residue 16); printed as H-Aib-HGTFTSDYSYYLE-K[(2S)-2-amino-6-[[(2S)-2-amino-6-[[(4S)-4-carboxy-4-(17-carboxyheptadecanoylamino)butanoyl]amino]hexanoyl]amino]hexanoyl]-QAA-Aib-EFVQWLLEGGPSSGAPPPS-NH2) [Compound No. 32] ?
Outgoing: 1.6

Incoming: What value of hGLP-1R CRE Luc EC50 (pM) has been recorded for this entry: H[Aib]HGTFTSDYSILLEKQAAREFVQWLLEGGPSSGAPPPS-OH (not fully specified (residue 16); printed as H-Aib-HGTFTSDYSILLE-K[(2S)-2-amino-6-[[(2S)-2-amino-6-[[(4S)-4-carboxy-4-(19-carboxynonadecanoylamino)butanoyl]amino]hexanoyl]amino]hexanoyl]-QAAREFVQWLLEGGPSSGAPPPS-OH) [Compound No. 55]
Outgoing: 2

Incoming: Please look up its hGLP-1R CRE Luc EC50 (pM): H[Aib]HGTFTSDYSIYLEKQAA[Aib]EFVQWLLEGGPSSGAPPPS-NH2 (not fully specified (residue 16); printed as H-Aib-HGTFTSDYSIYLE-K[(2S)-2-amino-6-[[(2S)-2-amino-6-[[(4S)-4-carboxy-4-(19-carboxynonadecanoylamino)butanoyl]amino]hexanoyl]amino]hexanoyl]-QAA-Aib-EFVQWLLEGGPSSGAPPPS-NH2) [Compound No. 22]
Outgoing: 2

Incoming: Record request: hGLP-1R CRE Luc EC50 (pM) value, item Y[Aib]QGTFTSDYSYLLEKQAA[Aib]EFVQWLLEGGPSSGAPPPS-NH2 (not fully specified (residue 16); printed as Y-Aib-QGTFTSDYSYLLE-K[(2S)-2-amino-6-[[(2S)-2-amino-6-[[(4S)-4-carboxy-4-(19-carboxynonadecanoylamino)butanoyl]amino]hexanoyl]amino]hexanoyl]-QAA-Aib-EFVQWLLEGGPSSGAPPPS-NH2) [Compound No. 48]
Outgoing: 10.1
